Assay: protease stability score; higher = more stable; yeast display proteolysis, trypsin and chymotrypsin;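 further: relative to predicted unfolded state with 0 unfolded-like and 1 meaning tenfold more protease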
Would you mind telling me the reported protease stability score of each entry?
Give your answer as a number; write no unit.

stdin: Given `SDLDKLAIKIAKILVKNLETGNEKMLEHLLDPHVKLHIDGVTFIGREEVNKWVKHELDEMRSRWEVHDRRTQGEYAHTDSRMYLHINGKDIEIEVTIIFNVVNGRVTFIEHRIH` , state its recorded protease stability score.
stdout: 0.084

stdin: Entry to check: `DEIEHLVHWAVEVYRHVLETGNESDLFRLFDPHVKLDVNGKEIVGREDVIEFISREIKQFDHVKLRIHRIDFQGDFVEVEGRLIVRQGDKEIRHDVRIYAEKIDGQWNVKSLSFR`
stdout: 2.48

stdin: # iterate: `DTDKKHIQNVLRLLSTLEHTGDWEALKELADPNVRVVVNGQEIHGRDMFNKHFEELRINDSRMILRDFEVQGDKIHVEGEVEFDGIIDGREKRFVRHVRIINVKIDGRWVIREIQVR`
stdout: 1.62

----------
Assay: protease stability score; higher = more stable; yeast display proteolysis, trypsin and chymotrypsin;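 further: relative to predicted unfolded state with 0 unfolded-like and 1 meaning tenfold more protease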
For each record, write down the corresponding protease stability score.
No unit in the answer, please; the number alone is enough.

stdin: For the sequence shown here, `DELEEISRRAQELSLRLFHTGDERSWERLVDPHAKLDVNGVDVHGRELVHKFFERNIRELGIKHIHLEHEEVQGNKVKLIMHINVNGVERRLVIIAEKIDGRWVLREHKEE` , give the reported protease stability score.
stdout: 0.464

stdin: Same question, `DEDEHMRRIAYRLMWEVWHTGNFEELISLVDPHARVDIDGVELHGRENFTHELHERLRRMGVETQFRLRKVESYNGVVHIHTELEITIDGRNHKIDFIFYAHKINGRWRMKSEEYR` this time
stdout: 1.8

stdin: Try this sequence next: `DEDTHDTKKAVEEFIHTVRTGDEHSLRRQLDPNARVEVGDKEQHGRLFIEWFIRMLGIDNVDVRVHDHHVYDGRVEVDLLLHVDGRDFRVNIVWDKINGQWRNRMVIFR`
stdout: 1.17

stdin: Next record, please: `DESTKNAQEVIKMIKEIVETGDWRRHHQLVDPNARLHVHINGKDEESHGREEFTRVLMELWKEFGAKHVRFEDFELQGEKIHFHVKINVDGKDVKLLIVALKINGRWLMESVYVEFH`
stdout: 1.19

stdin: Same thing, different sequence: `SEEEQHFRELLHHILENMYTGDWRSLEKNADPHARLFYYQGDKYELYIGMHEWRRLLHHMHERFRNARFQIDEWHVQGDYFKIVESLDYGDKHIDIRVHIQYVNGRLKEMHIHIH`
stdout: 1.24

stdin: Now give it for `SEIDKHAEDVMRIWEHVHRTGNEDTLSHLLDPDVKVEIHYDGVDIRLHGMELVSEFLTRFAHHARNKDFKEKDLELQGNKIIRTGIVVFDYDGVEIRRWTHEEIRVVNGRFTHIKKEFH` too.
stdout: 0.442

stdin: Lookup `DEERKRSEELMKLEIHVFETGDWEWYREMADPNTRMHIDGKDFHGREEIYKFLHEHHLRFKNIKIHFEHIELQGEYVHNDVIIHVNGVDLIAHIIIVVVNGRVTHSEFQLE`
stdout: 1.17

stdin: // query: `EEEEEKQERALRWFLHIIETGNEELLHRLLDPNVQVEIGDKRFHGWKHLLMVFNDLGVKHVELRDFTIINGVIRNEILLRVGDKENLTILILRKVDGKWQLERFNLQ`
stdout: 1.79

stdin: Moving on to `DEERHHFERVYEELMHVRRTGDWERYWELLDPDARLEINGQKYHGREDVLKAVTDIMRHWREKEFDFKRMDVQGDKVKIEGRVNGNFNGRDINTDVEIQITVVDGRLRHERFIIK`
stdout: 1.71

stdin: Consider next the sequence `TEREEEVHHVQRLEWEALRTGNEEYLLRLIDPEVRIRQGDKTLIGREALNLHLKKVKNLQFRDIKLRDFDVQGEKIHLHTELIGEVDGRELKIDIDIHVKKINGRWVIDSFHIN` in the same way.
stdout: 1.32

stdin: Now consider `DEDEEISHRMVRLIMQLMVTGDEESLKEYFDPNTRLFIDGRNNHGRELAVDEIQKHFEELGVDHIEIRIHHKDAQGDFVEIHIRLIIHVGDFEVRSTVHIFVRKVDGRWMIEKIEIK` and answer again.
stdout: 2.03

stdin: Consider next the sequence `DEEEKEFEFAEQVLKESLLTGDERTLKELMDPHVRLEQGDKLYIGRESFIKWWSKRREELGINHLHYRIKEVHIVNGRVRVNSHIEIIIGDKRHEEKVHFVLLKINGRWLMESVHME` in the same way.
stdout: 1.46

stdin: Now this one: `SEDENILRRVVNILLHVWMTGDEDSLKELIDPHARMDFDGQEVHGREEITRLIRTILHELGIKHFELHRHHIDVQGDKAHIEVDGVDDVDGRKVKVIIRMHVLKVNGRWKTRIVYFERQ`
stdout: 1.65

stdin: And `DETEKHVKHLTELWMHAWLTGDEDLLEHLLDPHTRVIIFYGDKNYHFHGRESIHIRFYELGAKHVRDFRIRDSKIQGNKLLLNGEENGLVNGRQTETEVRIELVWIDGRVHSIVVRIH` ?
stdout: 1.3

stdin: How about this sequence: `SENDELNEKLVRDWIISLHTGDEETLRDLLDPHVKVEVGEKRMHGREEYVTHLLHHARRADHIRIEIHQVHNQGDKVNIDGTLHIDVNGKHQHHRVTIIASKVNGKWLIESINIH`
stdout: 1.03

stdin: Next: `DDVEKLTREWFEKYLHTIQTGDEHSFERLADPNVRLHAENREYHGMEVISERLREEQDKFKGLRITHFHITHIINNEDEMYVDGRIVVEWNGQKEILTVHLIAFKVNGKWILKRYVKK`
stdout: 1.78

stdin: Can you check `DEEHHELHKMFEEMINKWITGDWEYIVKLLDPHVKLEVGDKRHHGWKQYVLFLEEFMREFKNATIKIHDVTHVDGVVIINMKFHFNGKDIDTTLYLHIVNGRLHDERIEVE` next?
stdout: 1.74

stdin: Repeat for the following sequence: `SEDEEHAERMLRILIELLLTGNESDFLRYADPNVRTIVGDKTFHGRDEFRTAWEWFLREIRLRHIELKHVEIQGNKVRVHGIWNIEINGRHIRLHVLIEIVVVDGVLRETRFEIR`
stdout: 1.47

stdin: Field entry: `DEHQRMLELFMRLLMHSQETGDEKTLRELADPNARIHVGDKDYVGREHAAKLLVEWRIHDLELRTVDVQGDKIQWEGELEGEYNGKQDRYETYIIVTKIDGRWLEERVIFK`
stdout: 1.3

stdin: # repeat for `DHDEKWAREVIRLLIEDIVTGDEESLSKLFDPHVRIEIGDKEHIGMEIALKLMIELWERLGVKHIHFHMSDIRVYDGRLDVDSRLHHVVNGRKHETKVRIFIRKINGRWVIESLVIH`
stdout: 2.25

stdin: And for `DEEEKILEEFLEIWIEAVATGDEEVLEHLMDPNTRVHILVGDKTLDVHGMEFFKRHIKILGADHIEWRIRHKEVINGRIHTRGELILRQGDKERRIDVEIILVVVNGRLKNSEVRER` ?
stdout: 1.43

stdin: Same question, `SEDEEEERRVEKLWSKALHTGDEEELHRLADPNVLLNFDGVEYIGREEFLKHFRRLVHEARIEFIILKDSKLIDGRLHIHGIDLVTQGDKRIELKSEVIVLKINGRWIIHHIHIH` this time
stdout: 0.75
